TGT: T1, his-tagged hTfR1 (Acro Biosystems p/n CD1-H5243) (human, UniProt P02786 89-760)
T1 construct: Bought reagent of the SPR assay
PROCEDURE_DETAILS: SPR, Biacore X100, His-tagged TfR1 captured by anti-His
pKd: −log10 of the molar value.

BINDER	pKd
Fab0071 (Fab, V domains shown) VH: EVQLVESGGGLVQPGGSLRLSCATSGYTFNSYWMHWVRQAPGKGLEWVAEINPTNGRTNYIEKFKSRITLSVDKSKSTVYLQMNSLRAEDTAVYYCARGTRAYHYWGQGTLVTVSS VL: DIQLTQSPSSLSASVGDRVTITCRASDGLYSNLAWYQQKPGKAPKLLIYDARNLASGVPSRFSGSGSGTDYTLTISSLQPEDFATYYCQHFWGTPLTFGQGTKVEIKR	9.26
Fab0062 (Fab, V domains shown) VH: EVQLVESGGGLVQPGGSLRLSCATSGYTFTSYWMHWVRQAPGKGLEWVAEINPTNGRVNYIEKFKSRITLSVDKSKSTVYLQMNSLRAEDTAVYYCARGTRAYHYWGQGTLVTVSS VL: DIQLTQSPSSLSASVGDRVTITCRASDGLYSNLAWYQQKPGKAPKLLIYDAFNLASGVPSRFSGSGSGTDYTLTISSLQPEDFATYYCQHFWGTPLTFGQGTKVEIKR	9.00
Fab0067 (Fab, V domains shown) VH: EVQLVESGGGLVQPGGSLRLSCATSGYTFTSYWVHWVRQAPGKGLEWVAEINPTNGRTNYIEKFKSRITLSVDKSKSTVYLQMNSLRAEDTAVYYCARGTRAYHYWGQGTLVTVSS VL: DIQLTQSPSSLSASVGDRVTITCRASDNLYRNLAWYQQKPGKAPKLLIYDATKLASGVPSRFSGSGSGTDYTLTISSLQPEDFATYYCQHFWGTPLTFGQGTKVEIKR	9.27

Where do the numbers come from? From patent US20260191981A1.
